Form field: shrunken log2 fold change (one value per entry).
tested on: Escherichia coli TOP10; test: shrunken log2 fold change of peptide-encoding DNA abundance (4.5 h post-induction vs induction); higher = less antimicrobial activity (less host growth inhibition); settings: time post-induction: 4.5 h; library: site-saturation at positions 5, 18, 19, 20
PARAMETER_MEASURED: shrunken log2 fold change

>>> data_value("RRIRLRPPRLPRPRPRPLEAPRP")
0.41
>>> data_value("RRIRKRPPRLPRPRPRPSHPPRP")
0.146
>>> data_value("RRIRERPPRLPRPRPRPEDMPRP")
-0.0115
>>> data_value("RRIRNRPPRLPRPRPRPHMVPRP")
-0.13
>>> data_value("RRIRFRPPRLPRPRPRPDESPRP")
-0.0167
>>> data_value("RRIRFRPPRLPRPRPRPPTRPRP")
0.748
>>> data_value("RRIRYRPPRLPRPRPRPHLKPRP")
-0.452
>>> data_value("RRIRLRPPRLPRPRPRPYILPRP")
-0.317
>>> data_value("RRIRFRPPRLPRPRPRPAWMPRP")
0.336
>>> data_value("RRIRLRPPRLPRPRPRPWTLPRP")
0.00677
>>> data_value("RRIRQRPPRLPRPRPRPKDNPRP")
-0.23
>>> data_value("RRIRERPPRLPRPRPRPRETPRP")
0.0334
>>> data_value("RRIRGRPPRLPRPRPRPQVDPRP")
0.266
>>> data_value("RRIRTRPPRLPRPRPRPPWDPRP")
0.294
>>> data_value("RRIRKRPPRLPRPRPRPMQSPRP")
0.995

* * *

system: Escherichia coli TOP10; assay: shrunken log2 fold change of peptide-encoding DNA abundance (4.5 h post-induction vs induction); higher = less antimicrobial activity (less host growth inhibition); conditions: time post-induction: 4.5 h; library: site-saturation at positions 5, 18, 19, 20;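 note: peptides expressed intracellularly from a pBAD plasmid library in pooled LB shake-flask culture, induced with 0.3% L-arabinose, DNA abundance read by NGS, three biological replicates, DESeq2 with apeglm shrinkage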
PARAMETER_MEASURED: shrunken log2 fold change

>>> data_value("RRIRRRPPRLPRPRPRPTTCPRP")
0.379
>>> data_value("RRIRQRPPRLPRPRPRPNVPPRP")
-0.0402
>>> data_value("RRIRIRPPRLPRPRPRPDGYPRP")
-0.00133
>>> data_value("RRIRDRPPRLPRPRPRPTCCPRP")
0.104
>>> data_value("RRIRTRPPRLPRPRPRPRAIPRP")
0.196
>>> data_value("RRIRTRPPRLPRPRPRPDDMPRP")
-0.0233
>>> data_value("RRIRGRPPRLPRPRPRPHFWPRP")
0.428
>>> data_value("RRIRTRPPRLPRPRPRPITGPRP")
0.00283
>>> data_value("RRIRCRPPRLPRPRPRPVHSPRP")
-0.107
>>> data_value("RRIRYRPPRLPRPRPRPRMDPRP")
-0.0437
>>> data_value("RRIRPRPPRLPRPRPRPYNDPRP")
-0.723
>>> data_value("RRIRERPPRLPRPRPRPWWRPRP")
0.098
>>> data_value("RRIRERPPRLPRPRPRPYLGPRP")
-0.12
>>> data_value("RRIRCRPPRLPRPRPRPMVIPRP")
-0.373
>>> data_value("RRIRCRPPRLPRPRPRPELRPRP")
0.0185
>>> data_value("RRIRKRPPRLPRPRPRPEWGPRP")
0.755
>>> data_value("RRIRIRPPRLPRPRPRPHHFPRP")
-0.313
>>> data_value("RRIRERPPRLPRPRPRPDKIPRP")
-0.0617
>>> data_value("RRIRIRPPRLPRPRPRPVSRPRP")
0.0446
>>> data_value("RRIRYRPPRLPRPRPRPDERPRP")
0.0108
>>> data_value("RRIRFRPPRLPRPRPRPRMAPRP")
0.375
>>> data_value("RRIRPRPPRLPRPRPRPATNPRP")
-0.105
>>> data_value("RRIRCRPPRLPRPRPRPFPCPRP")
-0.367
>>> data_value("RRIRMRPPRLPRPRPRPHLHPRP")
-0.301
>>> data_value("RRIRQRPPRLPRPRPRPNFMPRP")
0.0789
>>> data_value("RRIRQRPPRLPRPRPRPDYVPRP")
0.07
>>> data_value("RRIRERPPRLPRPRPRPDMVPRP")
0.0162
>>> data_value("RRIRGRPPRLPRPRPRPLAQPRP")
0.888
>>> data_value("RRIRTRPPRLPRPRPRPNHDPRP")
-0.3
>>> data_value("RRIRQRPPRLPRPRPRPTKKPRP")
-0.0835
>>> data_value("RRIRNRPPRLPRPRPRPSDSPRP")
-0.0909
>>> data_value("RRIRWRPPRLPRPRPRPEFQPRP")
0.118
